system: SK-MEL-2 melanoma; assay: NCI tumour cell line growth inhibition, 48 h
Task for the reader: assign each of the following molecules its reported TGI.

Entry "O=[N+]([O-])c1ccccc1S(=O)(=O)c1ccccc1[N+](=O)[O-]" has what TGI?
> 100 µM

Could you share which TGI value was measured for "Cn1c(O)c(C=N)c(=O)n(C)c1=O" ?
> 100 µM

# input molecule: "N#Cc1cc(-c2ccccc2)[nH]c1-c1nccc2ccccc12" ; wanted: its TGI
81 µM

Could you tell me which TGI is on file for CCOC(=O)N/N=C/C1=NN(C(=O)OCC)S(=O)C1C (stereo not given) ?
> 100 µM

Looking for the measured TGI of "CCS(=O)(=O)c1ccc(OC)c(Nc2ncc(-c3cccc(-c4ccccc4F)c3)o2)c1" , can you help?
> 25 µM

What value of TGI has been reported for the following molecule? "CCOC(=O)CC/C(C)=N\n1c(Cc2ccc(Cl)cc2)n[nH]c1=O"
> 100 µM

Consider the molecule "CN(C)c1cc2c(Nc3ccc4nc(Cc5ccccc5)[nH]c4c3)ncnc2cn1" and give its measured TGI.
> 25 µM

Look up TGI: "C/C(Sc1ccccc1)=C1/CCCN(Cc2ccccc2)C1"
34 µM

Request the reported TGI associated with CC1=C(C(=O)OCCc2ccc([N+](=O)[O-])cc2)C(c2ccccc2C(F)(F)F)C(C(=O)OC(C)C)=C(C)N1 (stereo not given)
7.16 µM

Param item = "NS(=O)(=O)c1cc(S(N)(=O)=O)c(NC(=O)Nc2ccc(Cl)c(Cl)c2)c(Cl)c1Cl" ; retrieve measured TGI.
> 100 µM

Hey, just so you know, these numbers are from PubChem BioAssay (NCI).
